assay system: UniProt:P29274
Sequence (P29274 whole entry): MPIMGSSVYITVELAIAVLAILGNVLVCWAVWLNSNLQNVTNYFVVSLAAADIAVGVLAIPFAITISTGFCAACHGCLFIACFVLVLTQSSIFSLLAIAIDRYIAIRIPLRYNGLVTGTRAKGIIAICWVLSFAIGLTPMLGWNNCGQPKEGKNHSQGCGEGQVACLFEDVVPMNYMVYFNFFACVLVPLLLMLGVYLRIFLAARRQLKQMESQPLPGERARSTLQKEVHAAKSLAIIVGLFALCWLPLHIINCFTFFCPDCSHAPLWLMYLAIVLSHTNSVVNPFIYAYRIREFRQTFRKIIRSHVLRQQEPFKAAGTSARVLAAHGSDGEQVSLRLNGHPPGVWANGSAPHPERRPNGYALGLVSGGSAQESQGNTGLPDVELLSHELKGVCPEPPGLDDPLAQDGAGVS
reported metric: Ki (nM)

c1coc(CNc2nc3ccccc3n3nc(-c4ccco4)nc23)c1; 490
c1coc(-c2nc3c(OCc4ccoc4)nc4ccccc4n3n2)c1; 575
COc1nc2ccccc2n2nc(-c3ccco3)nc12; 398
c1ccc(CNc2nc3ccccc3n3nc(-c4ccco4)nc23)cc1; 302

a: Nc1nc2ccccc2n2nc(-c3ccco3)nc12
b: COCCCNc1nc2ccccc2n2nc(-c3ccco3)nc12
c: CC(=O)Nc1nc2ccccc2n2nc(-c3ccco3)nc12
d: COCCNc1nc2ccccc2n2nc(-c3ccco3)nc12
e: OCCNc1nc2ccccc2n2nc(-c3ccco3)nc12
Query block: Ascending sort, Ki. Respond with the label ranking, as requested.
Result block: a, e, c, b, d

###

Target chain: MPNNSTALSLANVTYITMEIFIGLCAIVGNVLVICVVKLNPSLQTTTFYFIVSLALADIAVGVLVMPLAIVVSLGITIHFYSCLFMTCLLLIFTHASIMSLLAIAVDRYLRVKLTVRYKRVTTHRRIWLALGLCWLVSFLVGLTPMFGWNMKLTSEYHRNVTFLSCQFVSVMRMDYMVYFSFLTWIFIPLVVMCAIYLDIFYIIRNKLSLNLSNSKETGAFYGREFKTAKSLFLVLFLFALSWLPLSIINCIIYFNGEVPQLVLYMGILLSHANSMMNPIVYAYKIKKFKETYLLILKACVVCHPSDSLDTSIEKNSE
reported metric: Ki (nM)

a: CC(=O)Nc1nc2ccccc2n2nc(-c3ccco3)nc12
b: c1coc(-c2nc3c(OCc4ccoc4)nc4ccccc4n3n2)c1
Query block: Identify the entry with the smaller Ki: a or b . To answer, give the label that identifies your chosen option.
Result block: a

From: ChEMBL document CHEMBL1143971
